# target_or_system: EGFR (ErbB1) (Homo sapiens, UniProt P00533)
# Construct: purchased Invitrogen
# Sequence (P00533 25-1210): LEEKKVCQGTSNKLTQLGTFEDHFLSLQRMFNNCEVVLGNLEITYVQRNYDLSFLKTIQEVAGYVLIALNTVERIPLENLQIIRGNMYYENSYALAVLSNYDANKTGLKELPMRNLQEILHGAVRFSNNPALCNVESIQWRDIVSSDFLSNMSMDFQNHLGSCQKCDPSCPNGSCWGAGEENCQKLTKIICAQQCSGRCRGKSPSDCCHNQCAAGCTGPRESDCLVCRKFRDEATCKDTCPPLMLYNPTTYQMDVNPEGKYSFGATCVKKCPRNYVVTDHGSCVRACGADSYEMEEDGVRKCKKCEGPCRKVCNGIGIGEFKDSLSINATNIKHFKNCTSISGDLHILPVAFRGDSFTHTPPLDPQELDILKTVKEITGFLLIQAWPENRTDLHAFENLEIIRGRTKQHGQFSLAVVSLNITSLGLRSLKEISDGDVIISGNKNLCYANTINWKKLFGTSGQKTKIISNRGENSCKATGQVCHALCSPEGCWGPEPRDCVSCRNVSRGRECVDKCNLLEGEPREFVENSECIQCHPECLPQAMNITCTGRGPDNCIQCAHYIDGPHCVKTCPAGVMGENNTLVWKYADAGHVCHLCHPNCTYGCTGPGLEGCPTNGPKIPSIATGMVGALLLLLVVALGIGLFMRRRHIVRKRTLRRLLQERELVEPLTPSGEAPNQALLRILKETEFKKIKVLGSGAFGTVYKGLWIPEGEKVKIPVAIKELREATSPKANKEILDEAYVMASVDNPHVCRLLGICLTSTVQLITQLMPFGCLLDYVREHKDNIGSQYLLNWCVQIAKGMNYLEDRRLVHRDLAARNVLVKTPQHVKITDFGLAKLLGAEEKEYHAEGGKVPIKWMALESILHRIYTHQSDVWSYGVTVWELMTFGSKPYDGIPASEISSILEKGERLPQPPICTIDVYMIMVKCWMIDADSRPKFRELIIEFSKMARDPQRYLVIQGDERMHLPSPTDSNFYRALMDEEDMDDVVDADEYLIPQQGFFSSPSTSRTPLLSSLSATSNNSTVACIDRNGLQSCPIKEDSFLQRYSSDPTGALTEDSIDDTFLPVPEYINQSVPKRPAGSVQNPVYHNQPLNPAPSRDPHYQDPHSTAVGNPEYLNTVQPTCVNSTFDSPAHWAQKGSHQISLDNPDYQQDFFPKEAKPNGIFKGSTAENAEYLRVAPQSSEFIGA
# test: Z'-LYTE kinase inhibition assay (Invitrogen), EGFR
# Assay type: biochemical
# run_conditions: compound at 100 nM; [ATP] = Km
Listing of entries alongside the reported inhibition at 0.1 µM.
measurement_label: inhibition at 0.1 µM

compound: C=CC(=O)Nc1cc(Nc2ncc3cccc(-c4ccncc4)c3n2)ccc1N(C)CCN(C)C
reported: < 50%
--
compound: C=CC(=O)Nc1cc(Nc2ncc3cccc(-c4ccccc4Cl)c3n2)ccc1N(C)CCN(C)C
reported: < 50%
--
compound: C=CC(=O)Nc1cc(Nc2ncc3cccc(-c4cccc(Cl)c4)c3n2)ccc1N1CCN(C)CC1
reported: < 50%
--
compound: C=CC(=O)N1CCCC(n2cnc3cnc(Nc4ccc(N5CCN(C)CC5)c(F)c4F)nc32)C1 (stereo not shown)
reported: < 50%
--
compound: C=CC(=O)Nc1cc(Nc2ncc3cccc(-c4ccccc4F)c3n2)ccc1N(C)CCN(C)C
reported: < 50%
--
compound: C=CC(=O)N1CCC(n2cnc3cnc(Nc4ccc(N5CCN(C)CC5)cc4F)nc32)C1 (stereo not shown)
reported: < 50%
--
compound: C=CC(=O)N1CCCC(n2cnc3cnc(Nc4ccc(N5CCN(CCO)CC5)cc4)nc32)C1 (stereo not shown)
reported: < 50%
--
compound: C=CC(=O)Nc1cccc(-n2cnc3cnc(Nc4ccc(N5CCN(CCO)CC5)c(F)c4F)nc32)c1
reported: < 50%
--
compound: C=CC(=O)Nc1cc(Nc2ncc3cccc(-c4cncc(Cl)c4)c3n2)ccc1N(C)CCN(C)C
reported: < 50%
--
compound: C=CC(=O)Nc1cc(Nc2ncc3cccc(-c4cncc(F)c4)c3n2)ccc1N(C)CCN(C)C
reported: < 50%
--
compound: C=CC(=O)Nc1cc(Nc2ncc3cccc(-c4cccc(Cl)c4)c3n2)ccc1OC1CCN(C)CC1
reported: < 50%
--
compound: C=CC(=O)Nc1cccc(-n2cnc3cnc(Nc4ccc(N5CCN(CCO)CC5)c(F)c4)nc32)c1
reported: < 50%
--
compound: C=CC(=O)Nc1cccc(-n2cnc3cnc(Nc4ccc(N5CCN(CCO)CC5)cc4)nc32)c1
reported: < 50%
--
compound: C=CC(=O)N1CCCC(n2cnc3cnc(Nc4ccc(N5CCN(CCO)CC5)c(F)c4)nc32)C1 (stereo not shown)
reported: < 50%
--
compound: C=CC(=O)Nc1cc(Nc2ncc3cccc(-c4cccc(Cl)c4)c3n2)ccc1OCCN(C)C
reported: < 50%
--
compound: C=CC(=O)Nc1cc(Nc2ncc3cccc(-c4cccc(Cl)c4)c3n2)ccc1N(C)CCN(C)C
reported: > 50%
